molecular target: human ETA receptors (Homo sapiens); construct: endogenous in cells; host or cells: TE 671 cells (ATCC HTB 139), membrane preparation; assay: Endothelin binding inhibition, Binding Test #1: competition with 125I-ET-1 for ETA receptors on TE 671 cell membranes; conditions: incubation at 24° C. (values marked †)
Sequence (P25101 21-427): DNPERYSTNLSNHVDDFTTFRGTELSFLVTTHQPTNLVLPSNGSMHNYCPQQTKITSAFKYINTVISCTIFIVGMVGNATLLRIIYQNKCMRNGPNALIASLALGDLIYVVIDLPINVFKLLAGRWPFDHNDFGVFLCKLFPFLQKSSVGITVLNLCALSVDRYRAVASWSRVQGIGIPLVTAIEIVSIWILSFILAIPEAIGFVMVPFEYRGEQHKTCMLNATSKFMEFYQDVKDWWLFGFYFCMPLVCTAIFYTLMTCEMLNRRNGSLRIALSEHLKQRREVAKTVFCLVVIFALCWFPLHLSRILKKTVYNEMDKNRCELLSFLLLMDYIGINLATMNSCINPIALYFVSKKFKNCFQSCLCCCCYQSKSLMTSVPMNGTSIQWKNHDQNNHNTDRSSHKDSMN
pIC50: −log10 of the molar value.
Respond with 1 (yes) for pIC50 values of 8 and above, 0 (no) for values below.

// known answers, use as guide
Cc1noc(NS(=O)(=O)c2ccsc2C(N)=O)c1Br ... 0 (no)
Cc1ccc(OCc2sccc2S(=O)(=O)Nc2onc(C)c2Br)c(C)c1 ... 0 (no)
Cc1cc(C)c(NC(=O)c2sccc2S(=O)(=O)Nc2noc(C)c2Cl)c(C)c1CC#N ... 1 (yes)

Here is the next item to consider.
Check if pIC50 >= 8 (inclusive). Item: COc1ccc(OC(=O)c2sccc2S(=O)(=O)Nc2onc(C)c2Cl)cc1 0 (no)
